# TESTED_SYSTEM: glutathione reductase (Homo sapiens (Human), UniProt P00390)
# Sequence (P00390 44-522): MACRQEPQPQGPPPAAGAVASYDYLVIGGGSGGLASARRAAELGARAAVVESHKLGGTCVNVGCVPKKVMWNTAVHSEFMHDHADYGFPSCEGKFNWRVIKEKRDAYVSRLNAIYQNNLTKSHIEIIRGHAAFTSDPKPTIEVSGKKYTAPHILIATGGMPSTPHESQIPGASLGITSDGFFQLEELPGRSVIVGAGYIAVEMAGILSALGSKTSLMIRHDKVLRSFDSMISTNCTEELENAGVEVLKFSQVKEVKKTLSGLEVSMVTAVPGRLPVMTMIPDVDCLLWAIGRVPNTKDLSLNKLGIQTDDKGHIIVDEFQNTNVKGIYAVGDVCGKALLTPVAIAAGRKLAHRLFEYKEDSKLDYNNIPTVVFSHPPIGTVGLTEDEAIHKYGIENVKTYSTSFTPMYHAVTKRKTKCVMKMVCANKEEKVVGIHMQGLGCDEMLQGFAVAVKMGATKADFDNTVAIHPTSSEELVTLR
# RUN_DESCRIPTION: Glutathione reductase activity, DTNB chromogenic assay (Glutathione Reductase Assay Kit)
# Assay type: biochemical
# MEASUREMENT_PARAMETERS: 5 min from reaction onset; read-out: IC50 of glutathione reductase activity inhibition
# Experimental: The spatial structures of the active centres of glutathione reductase and the enzymes of the Trx-TrxR system show a high similarity. […] The reactions for determining the activity of recombinant human glutathione reductase made use of a chromogenic reaction with 5,5′-dithiobis-2-nitrobenzoic acid, like in the case of thioredoxin reductase. Activity was determined after 5 and 10 min incubation at room temperature.
QUANTITY_NAME: IC50

Examples with their reported IC50 follow.
[ask] Return value of IC50 for input C=C(COC(=O)c1c(C(F)(F)F)cccc1C(F)(F)F)C(=O)NC(CC(C)C)C(=O)NCC(=O)OCC (racemic) , no commentary.
[reply] > 100 µM

[ask] Tell us which IC50 value is on record for C=C(COC(=O)c1c(Cl)cccc1Cl)C(=O)NCc1ccccc1
[reply] > 100 µM

---
[ask] Tell me its IC50 given CCC(C)SSc1ncc[nH]1 (stereo not shown) [PX-12, 1-methylpropyl-2-imidazole disulphide, reference compound] as the entry.
[reply] 19.8 µM

[ask] Please supply the value of reported IC50 for the item C=C(COC(=O)c1c(C(F)(F)F)cccc1C(F)(F)F)C(=O)NCc1ccccc1
[reply] > 100 µM

These data points were gathered from patent US9018255B2.
